Data origin: paper PMC5700162

# Substrate: O=P(O)(O)OC[C@H](O)CO
# ASSAY DETAILS: coupled MDCC-PBP Pi-biosensor fluorescence assay in lipid cubic phase (monoolein)
# Assay type: biochemical, Aquifex aeolicus
# TEST SETTINGS: co-substrate 3.3-5.2 mol% 16:0-P, pH 8.0, 30 °C, no technical replicates
METRIC NAME: Km (µM)
One number for each entry, in µM.

Entry under test: aaPlsY (Aquifex aeolicus VF5; H92A) (protein, full length, 192 residues, monomer, codon-optimised gene, E. coli BL21(DE3); assays: C-terminal His8 tag (p3EC); crystals: C-terminal His-eGFP removed by 3C protease; DDM-purified, reconstituted in lipid cubic phase) MKALFLVIFAYLLGSITFGEVIAKLKGVDLRNVGSGNVGATNVTRALGKKYGVLVFFLDFLKGFIPALIAVKSFGIDSWVLTFTGLASVLGAMYPVFFGFKGGKGVATALGVVFAVSPSVALFSFLVWLGIFLWKRYVSLASITATISAFLFLFVAGYPVNVLFMAIVIGALIIYRHRENINRLLTGREHRF . Its Km was 2640
